This listing pairs compounds with measured pIC50.
Biological target: KRas G12V (Homo sapiens, UniProt P01116, G12V);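 further: KRas binding measured by TR-FRET displacement at room temperature, IC50 fitted from percent of control values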
Sequence (P01116 1-169 isoform P01116-2 G12V): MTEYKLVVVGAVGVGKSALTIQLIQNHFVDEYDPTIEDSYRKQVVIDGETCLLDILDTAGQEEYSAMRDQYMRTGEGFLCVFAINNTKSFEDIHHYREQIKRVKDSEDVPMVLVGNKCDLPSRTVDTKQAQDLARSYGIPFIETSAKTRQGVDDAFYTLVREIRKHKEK
Assay: biochemical
pIC50: −log10 of the molar value.

{"Compound": "CCc1c(F)ccc2cc(O)cc(-c3ncc4c(N5CCCC6(CNS(=O)(=O)N6)C5)nc(OCC5(CN(C)C)CC5)nc4c3F)c12 (stereo not drawn) [Example 364]", "pIC50": "≥ 8.70"}
{"Compound": "CCc1c(F)ccc2cc(O)cc(-c3ncc4c(NCc5ccc6nccn6c5)nc(OC[C@@]56CCCN5C[C@H](F)C6)nc4c3F)c12 [Example 156]", "pIC50": "≥ 8.70"}
{"Compound": "NS(=O)(=O)CC1CCCN(c2nc(OCC34CCCN3CCC4)nc3c(F)c(-c4cccc5cccc(F)c45)ncc23)C1 (stereo not drawn) [Example 221]", "pIC50": 6.25}

* * *

Reported IC50 by item:
Tested on: pERK in A549 cells
Test: Inhibition of KRas phosphorylation of ERK (Cisbio HTRF pERK assay)
Conditions: Homo sapiens, A549, read-out: Inhibition (HTRF IC50) of KRas-mediated Phosphorylation of ERK, A549

{"Compound": "CCc1c(F)ccc2cc(O)cc(-c3ncc4c(N5CCC[C@@](C)(O)C5)nc(OC[C@@]56CCCN5C[C@H](F)C6)nc4c3F)c12 [Example 5]", "IC50 (nM)": 2}
{"Compound": "CCc1c(F)ccc2cc(O)cc(-c3ncc4c(N5CCC[C@@](C)(O)C5)nc(OC[C@]56CCCN5[C@H](COC(=O)N(C)C)CC6)nc4c3F)c12 [Example 313]", "IC50 (nM)": 38}
{"Compound": "CCc1c(F)ccc2cc(O)cc(-c3ncc4c(N5C[C@@H](CO)C[C@](C)(O)C5)nc(OC[C@@]56CCCN5C[C@H](F)C6)nc4c3F)c12 (mixture of isomers) [Example 327]", "IC50 (nM)": 238}
{"Compound": "CCc1c(F)ccc2cc(O)cc(-c3ncc4c(N5CCOC[C@@](C)(O)C5)nc(OC[C@@]56CCCN5C[C@H](F)C6)nc4c3F)c12 [Example 200]", "IC50 (nM)": 5}
{"Compound": "CCc1c(F)ccc2cc(O)cc(-c3ncc4c(N5CCOCC6(COC6)C5)nc(OC[C@@]56CCCN5C[C@H](F)C6)nc4c3F)c12 [Example 480]", "IC50 (nM)": 215}
{"Compound": "CCc1c(F)ccc2cc(O)cc(-c3ncc4c(N5CCCC6(CSC6)C5)nc(OC[C@@]56CCCN5C[C@H](F)C6)nc4c3F)c12 [Example 365]", "IC50 (nM)": 11}
{"Compound": "C[C@@]1(O)CCCN(c2nc(OC[C@@]34CCCN3C[C@H](F)C4)nc3c(F)c(-c4cc(O)cc5ccc(F)c(Br)c45)ncc23)C1 [Example 399]", "IC50 (nM)": 14}
{"Compound": "C[C@@]1(O)CCCN(c2nc(OC[C@@]34CCCN3C[C@H](F)C4)nc3c(F)c(-c4cc(O)cc5ccc(F)c(F)c45)ncc23)C1 [Example 514]", "IC50 (nM)": 20}
{"Compound": "CCc1c(F)ccc2cc(O)cc(-c3ncc4c(N5CCOC[C@@](C)(O)C5)nc(OCC5(CN(C)C)CC5)nc4c3F)c12 [Example 361]", "IC50 (nM)": 122}
{"Compound": "CC1(O)COCCN(c2nc(OC[C@@]34CCCN3C[C@H](F)C4)nc3c(F)c(-c4cc(O)cc5ccc(F)c(Br)c45)ncc23)C1 (some centres unmarked) [Example 400]", "IC50 (nM)": 62}
{"Compound": "C#Cc1c(F)ccc2cc(O)cc(-c3ncc4c(N5CCCC6(CC(O)C6)C5)nc(OC[C@@]56CCCN5C[C@H](F)C6)nc4c3F)c12 (some centres unmarked) [Example 393]", "IC50 (nM)": 133}
{"Compound": "CCc1c(F)ccc2cc(O)cc(-c3ncc4c(N5CCC[C@]6(C5)C[C@H](O)C6)nc(OC[C@@]56CCCN5C[C@H](F)C6)nc4c3F)c12 (single isomer, unassigned) [Example 323]", "IC50 (nM)": 19}
{"Compound": "CCc1c(F)ccc2cc(O)cc(-c3ncc4c(N5CCOC[C@@](C)(O)C5)nc(OCC5(CN6CCCC6)CC5)nc4c3F)c12 [Example 321]", "IC50 (nM)": 99}
{"Compound": "C#Cc1c(F)ccc2cc(O)cc(-c3ncc4c(N5CC6CC(O)CC5C6)nc(OC[C@@]56CCCN5C[C@H](F)C6)nc4c3F)c12 (some centres unmarked) [Example 390]", "IC50 (nM)": 114}
{"Compound": "CCc1c(F)ccc2cc(O)cc(-c3ncc4c(N5CCCC6(CC(=O)N6)C5)nc(OC[C@@]56CCCN5C[C@H](F)C6)nc4c3F)c12 (some centres unmarked) [Example 57]", "IC50 (nM)": 175}
{"Compound": "CCc1c(F)ccc2cc(O)cc(-c3ncc4c(N5CCCC(O)(C(F)F)C5)nc(OC[C@@]56CCCN5C[C@H](F)C6)nc4c3F)c12 (some centres unmarked) [Example 184]", "IC50 (nM)": 44}
{"Compound": "Oc1cc(-c2ncc3c(N4CC5CC(O)CC4C5)nc(OC[C@@]45CCCN4C[C@H](F)C5)nc3c2F)c2c(Br)c(F)ccc2c1 (some centres unmarked) [Example 403]", "IC50 (nM)": 96}
{"Compound": "CCc1c(F)ccc2cc(O)cc(-c3ncc4c(N5CCCn6nc(C(=O)N7CCN(C)CC7)cc6C5)nc(OC[C@@]56CCCN5C[C@H](F)C6)nc4c3F)c12 [Example 477]", "IC50 (nM)": 865}
{"Compound": "CCc1c(F)ccc2cc(O)cc(-c3ncc4c(N5C[C@H](O)CC[C@@H](O)C5)nc(OC[C@@]56CCCN5C[C@H](F)C6)nc4c3F)c12 [Example 490]", "IC50 (nM)": 298}
{"Compound": "CCNC(=O)c1cc2n(n1)CCCN(c1nc(OC[C@@]34CCCN3C[C@H](F)C4)nc3c(F)c(-c4cc(O)cc5ccc(F)c(CC)c45)ncc13)C2 [Example 356]", "IC50 (nM)": 232}
{"Compound": "CCc1c(F)ccc2cc(O)cc(-c3ncc4c(N5CCCC6(CCC6O)C5)nc(OC[C@@]56CCCN5C[C@H](F)C6)nc4c3F)c12 (some centres unmarked) [Example 351]", "IC50 (nM)": 185}
{"Compound": "CCc1c(F)ccc2cc(O)cc(-c3ncc4c(N5CCCn6nc(C(=O)N(C)C)cc6C5)nc(OC[C@@]56CCCN5C[C@H](F)C6)nc4c3F)c12 [Example 326]", "IC50 (nM)": 138}
{"Compound": "CCc1c(F)ccc2cc(O)cc(-c3ncc4c(N5CCC[C@]6(CC(=O)N6)C5)nc(OC[C@@]56CCCN5C[C@H](F)C6)nc4c3F)c12 (single isomer, unassigned) [Example 194]", "IC50 (nM)": 63}

* * *

Test system: pERK in ASPC1 cells
Assay: Inhibition of KRas phosphorylation of ERK (Cisbio HTRF pERK assay)
Details: Homo sapiens, ASPC1, read-out: Inhibition (HTRF IC50) of KRas-mediated Phosphorylation of ERK, AsPC-1

{"Compound": "O=S1(=O)NC[C@@]2(CCCN(c3nc(OC[C@@]45CCCN4C[C@H](F)C5)nc4c(F)c(-c5cc(O)cc6ccc(F)c(Cl)c56)ncc34)C2)N1 [Example 516]", "Unit spec": "µM", "Rel": "=", "IC50": 9.32}
{"Compound": "CCc1c(F)ccc2cc(O)cc(-c3ncc4c(NCCC5CCC(=O)N5)nc(OC[C@@]56CCCN5C[C@H](F)C6)nc4c3F)c12 (stereo partly drawn) [Example 377]", "Unit spec": "µM", "Rel": "≥", "IC50": 10}
{"Compound": "CCc1c(F)ccc2cc(O)cc(-c3ncc4c(N5CCCn6nc(C(=O)N(C)C)cc6C5)nc(OCC5(CN(C)C)CC5)nc4c3F)c12 [Example 333]", "Unit spec": "µM", "Rel": "=", "IC50": 0.603}

* * *

Molecular target: KRas G12S (Homo sapiens, UniProt P01116, G12S);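 further: TR-FRET displacement binding to KRas, read after one hour incubation at room temperature, IC50 from four-parameter fit of percent of control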
Sequence (P01116 1-169 isoform P01116-2 G12S): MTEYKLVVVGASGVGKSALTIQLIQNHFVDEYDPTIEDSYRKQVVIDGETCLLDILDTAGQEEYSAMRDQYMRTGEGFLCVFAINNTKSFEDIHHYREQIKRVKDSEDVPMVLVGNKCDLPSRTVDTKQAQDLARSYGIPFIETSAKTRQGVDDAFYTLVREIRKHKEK
Assay: biochemical
pIC50: −log10 of the molar value.
pIC50 values, listed per item
Measured parameter: pIC50

{"Compound": "O=S1(=O)NCCC2(CCCN(c3nc(OCC45CCCN4CCC5)nc4c(F)c(-c5cccc6cccc(F)c56)ncc34)C2)N1 (stereo not shown)", "Measured parameter": "pIC50", "Measured number": 5.67}
{"Compound": "O=C1NC(=O)C2(CCCN(c3nc(OCC45CCCN4CCC5)nc4c(F)c(-c5cccc6cccc(C(F)F)c56)ncc34)C2)N1 (stereo not shown)", "Measured parameter": "pIC50", "Measured number": 6.45}
{"Compound": "O=S1(=O)NCC2(CCCN(c3nc(OCC45CCCN4CCC5)nc4c(F)c(-c5cccc6cccc(F)c56)ncc34)C2)N1 (stereo not shown)", "Measured parameter": "pIC50", "Measured number": 8.10}
{"Compound": "Nc1cc2n(n1)CCCN(c1nc(OCC34CCCN3CCC4)nc3c(F)c(-c4cccc5cccc(F)c45)ncc13)C2", "Measured parameter": "pIC50", "Measured number": 5.91}
{"Compound": "Cn1ncc2ccc(Nc3nc(OCC45CCCN4CCC5)nc4c(F)c(-c5cccc6cccc(F)c56)ncc34)cc21", "Measured parameter": "pIC50", "Measured number": 4.66}
{"Compound": "OC1CCC12CCCN(c1nc(OCC34CCCN3CCC4)nc3c(F)c(-c4cccc5cccc(F)c45)ncc13)C2 (stereo not shown)", "Measured parameter": "pIC50", "Measured number": 5.13}
{"Compound": "CCc1cccc2cccc(-c3ncc4c(N5CCCC6(CNC(=O)C6)C5)nc(OCC56CCCN5CCC6)nc4c3F)c12 (stereo not shown)", "Measured parameter": "pIC50", "Measured number": 6.39}
